Measured values drawn from patent US20250154109A1 for this set.

Target: human Nav1.8 (Homo sapiens, UniProt Q9Y5Y9)
Sequence (Q9Y5Y9 whole entry): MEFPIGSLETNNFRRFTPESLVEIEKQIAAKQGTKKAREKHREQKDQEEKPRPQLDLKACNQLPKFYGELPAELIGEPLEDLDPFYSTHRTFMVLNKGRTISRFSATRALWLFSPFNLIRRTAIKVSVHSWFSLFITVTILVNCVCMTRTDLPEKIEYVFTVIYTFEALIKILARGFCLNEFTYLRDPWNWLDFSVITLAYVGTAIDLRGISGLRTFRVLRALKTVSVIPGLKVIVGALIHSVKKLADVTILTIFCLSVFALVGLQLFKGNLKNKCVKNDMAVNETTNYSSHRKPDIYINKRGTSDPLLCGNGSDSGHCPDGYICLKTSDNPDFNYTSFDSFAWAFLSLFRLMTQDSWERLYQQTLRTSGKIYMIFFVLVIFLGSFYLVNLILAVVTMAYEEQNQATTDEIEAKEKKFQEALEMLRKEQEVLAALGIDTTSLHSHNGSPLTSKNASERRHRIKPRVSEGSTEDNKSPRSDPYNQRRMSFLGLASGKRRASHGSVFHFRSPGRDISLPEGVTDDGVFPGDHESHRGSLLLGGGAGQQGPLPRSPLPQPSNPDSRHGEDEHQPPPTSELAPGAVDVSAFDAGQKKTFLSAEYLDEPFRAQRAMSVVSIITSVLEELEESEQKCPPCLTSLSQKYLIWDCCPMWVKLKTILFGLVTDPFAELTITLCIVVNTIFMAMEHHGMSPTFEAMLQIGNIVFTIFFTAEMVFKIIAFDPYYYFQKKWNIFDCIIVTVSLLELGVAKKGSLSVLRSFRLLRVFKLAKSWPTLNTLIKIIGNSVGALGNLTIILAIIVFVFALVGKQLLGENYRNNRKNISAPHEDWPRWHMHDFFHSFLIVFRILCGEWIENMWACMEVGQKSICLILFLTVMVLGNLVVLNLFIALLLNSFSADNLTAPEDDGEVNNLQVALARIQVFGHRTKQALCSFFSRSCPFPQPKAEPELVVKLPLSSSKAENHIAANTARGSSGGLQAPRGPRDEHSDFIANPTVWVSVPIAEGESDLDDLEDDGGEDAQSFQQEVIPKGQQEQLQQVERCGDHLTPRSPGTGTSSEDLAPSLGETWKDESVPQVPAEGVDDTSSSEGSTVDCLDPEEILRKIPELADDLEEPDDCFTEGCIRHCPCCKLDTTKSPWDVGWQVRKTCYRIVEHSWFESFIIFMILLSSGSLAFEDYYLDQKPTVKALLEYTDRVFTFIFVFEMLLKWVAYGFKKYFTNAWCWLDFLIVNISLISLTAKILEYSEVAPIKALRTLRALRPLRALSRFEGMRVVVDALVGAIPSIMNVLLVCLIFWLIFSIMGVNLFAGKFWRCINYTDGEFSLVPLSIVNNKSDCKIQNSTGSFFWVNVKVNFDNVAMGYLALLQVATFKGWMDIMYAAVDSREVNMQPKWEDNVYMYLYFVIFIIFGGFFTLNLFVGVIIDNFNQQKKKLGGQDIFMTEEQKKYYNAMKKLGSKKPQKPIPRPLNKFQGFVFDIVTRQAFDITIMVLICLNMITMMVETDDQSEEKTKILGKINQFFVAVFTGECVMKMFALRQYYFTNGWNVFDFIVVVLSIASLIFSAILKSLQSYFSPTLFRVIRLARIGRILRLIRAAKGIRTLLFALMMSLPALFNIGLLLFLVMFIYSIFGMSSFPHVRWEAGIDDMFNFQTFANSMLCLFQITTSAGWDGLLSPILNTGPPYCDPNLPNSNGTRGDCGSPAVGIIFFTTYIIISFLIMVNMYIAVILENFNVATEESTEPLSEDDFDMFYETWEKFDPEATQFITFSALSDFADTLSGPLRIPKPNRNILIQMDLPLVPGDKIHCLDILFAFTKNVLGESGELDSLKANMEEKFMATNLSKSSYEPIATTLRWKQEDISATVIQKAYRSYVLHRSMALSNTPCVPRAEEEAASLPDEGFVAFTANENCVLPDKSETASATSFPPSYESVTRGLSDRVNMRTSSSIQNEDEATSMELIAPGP
Test: SyncroPatch384PE assay (automated patch clamp)
Type: cell-based
Conditions: inactivated state block (P2 measurement), human Nav1.8/b3 CHO cells, read-out: P2 IC50
Catalogue of IC50 readings, one per entry.

Summary for this compound, Cc1nc(N2CCN(C)CC2)nc(N2CCCC(F)(F)CC2)c1C(=O)Nc1cccc([S@](C)(=N)=O)c1 : IC50 is > 200 nM

Summary for this compound, Cc1nc(N2CCCC(F)(F)CC2)c(C(=O)Nc2cccc([S@](C)(=N)=O)c2)c(C)c1Br : IC50 is ≤ 5 nM

Summary for this compound, COc1ccc(-c2cnc(N3CCCC(F)(F)CC3)c(C(=O)Nc3cccc(S(C)(=N)=O)c3)c2C)cc1 (stereo not shown) : IC50 is ≤ 5 nM

Summary for this compound, Cc1nc(N2CCCC(F)(F)CC2)c(C(=O)Nc2cccc(S(C)(=N)=O)c2)c(C)c1Cl (stereo not shown) : IC50 is ≤ 5 nM

----------
Target: human Nav1.8 (Homo sapiens)
Test: SyncroPatch384PE assay (automated patch clamp)
Assay type: cell-based
Conditions: resting state block (P1 measurement), human Nav1.8/b3 CHO cells, read-out: P1 IC50
Catalogue of IC50 readings, one per entry.

Some solved cases for reference:
Compound	IC50
Cc1c(C(F)(F)F)nnc(N2CCCC(F)(F)CC2)c1C(=O)Nc1ccnc(S(=N)(N)=O)c1 (centres unmarked)	5 to 50 nM
Cc1c(-c2cnn(C)c2)cnc(N2CCCC(F)(F)CC2)c1C(=O)NC12CC(C(N)=O)(C1)C2	> 200 nM
Cc1nc(N2CCCC(F)(F)CC2)c(C(=O)Nc2cccc([S@](C)(=N)=O)c2)cc1Cl	≤ 5 nM
Cc1c(Br)cnc(N2CCCC(F)(F)CC2)c1C(=O)Nc1cccc([S@@](C)(=N)=O)c1	≤ 5 nM
Cc1c(Cl)cnc(N2CCCC(F)(F)CC2)c1C(=O)Nc1cccc(S(C)(=N)=O)c1 (centres unmarked)	≤ 5 nM

Summary for this compound, Cc1ccsc1-c1nnc(N2CCCCCC2)c(C(=O)Nc2cccc(S(C)(=N)=O)c2)c1C (centres unmarked) : IC50 is > 200 nM

Summary for this compound, Cc1nn(C)cc1-c1cnc(N2CCCC(F)(F)CC2)c(C(=O)Nc2cccc([S@](C)(=N)=O)c2)c1C : IC50 is > 200 nM

Summary for this compound, Cc1c(-c2cnn(C)c2)cnc(N2CCCC(F)(F)CC2)c1C(=O)Nc1cccc([S@@](C)(=O)=NCCN)c1 [Example 210, 2,2,2-trifluoroacetate] : IC50 is 5 to 50 nM

Summary for this compound, Cc1c(C(F)(F)F)nnc(N2CCCC(F)(F)CC2)c1C(=O)Nc1cccc([S@@](C)(=O)=NC(=O)[C@@H](C)O)c1 : IC50 is ≤ 5 nM

Summary for this compound, Cc1c(C(F)(F)F)cnc(N2CCCC(F)(F)CC2)c1C(=O)Nc1cccc([S@@](C)(=O)=NC(=O)CN)c1 : IC50 is ≤ 5 nM

Summary for this compound, CNCC(=O)N=[S@](C)(=O)c1cccc(NC(=O)c2cc(Cl)c(C(F)(F)F)cc2N2CCCC(F)(F)CC2)c1 : IC50 is ≤ 5 nM

----------
Catalogue of IC50 readings, one per entry.
Biological target: human Nav1.8 (Homo sapiens, UniProt Q9Y5Y9)
Experiment: SyncroPatch384PE assay (automated patch clamp)
Type: cell-based
Conditions: inactivated state block (P2 measurement), human Nav1.8/b3 CHO cells, read-out: P2 IC50

Some solved cases for reference:
Compound	IC50
Cc1c(C#CC2CC2)cnc(N2CCCC(F)(F)CC2)c1C(=O)Nc1cccc([S@](C)(=N)=O)c1	≤ 5 nM
Cc1c(C(F)(F)F)nnc(N2CCCCCC2)c1C(=O)Nc1cccc(S(C)(=N)=O)c1 (centres unmarked)	100 to 200 nM
Cc1c(C(F)(F)F)cnc(N2CCCC(F)(F)CC2)c1C(=O)Nc1cccc([S@@](C)(=O)=NC(=O)[C@@H](C)O)c1	≤ 5 nM
Cc1c(-c2c(F)cccc2F)cnc(N2CCCC(F)(F)CC2)c1C(=O)Nc1cccc(S(C)(=N)=O)c1 (centres unmarked)	5 to 50 nM
Cc1c(C(F)(F)F)nnc(N2CCCC(F)(F)CC2)c1C(=O)Nc1cccc([S@@](C)(=O)=NC(=O)CN)c1	≤ 5 nM

Summary for this compound, Cc1n[nH]c(C)c1-c1cnc(N2CCCC(F)(F)CC2)c(C(=O)Nc2cccc([S@](C)(=N)=O)c2)c1C : IC50 is > 200 nM

Summary for this compound, CNCC(=O)N=[S@@](C)(=O)c1cccc(NC(=O)c2c(N3CCCC(F)(F)CC3)nnc(C(F)(F)F)c2C)c1 : IC50 is 5 to 50 nM

Summary for this compound, Cc1c(-c2cnn(C)c2)cnc(N2CCCC(F)(F)CC2)c1C(=O)Nc1cccc(S(=N)(N)=O)c1 (centres unmarked) : IC50 is 5 to 50 nM

Summary for this compound, Cc1c(-c2ccc(Cl)cc2)cnc(N2CCCC(F)(F)CC2)c1C(=O)Nc1cccc([S@](C)(=N)=O)c1 : IC50 is ≤ 5 nM

Summary for this compound, Cc1nc(N2CCC3(CC2)CC3)c(C(=O)Nc2cccc([S@](C)(=N)=O)c2)cc1Cl : IC50 is ≤ 5 nM
